# Test system: rodent lifetime carcinogenesis bioassay, tumor incidence TD50
# Measurement protocol: carcinogenic potency in animals, long-term in vivo studies, CPDB compilation (AID 1745844)
# Condition description: rat; strain MRC; males; by gavage; site: nasal and paranasal cavity; lesion: several types; types named in the paper; dosed 72 weeks; study length 80 weeks
Metric name: TD50

QUERY: Form field: reported TD50 of CC(=O)CN(CC(C)=O)N=O
RESULT: 1.23 mg/kg/day

----------
# Tested on: rodent lifetime carcinogenesis bioassay, tumor incidence TD50
# Measurement protocol: carcinogenic potency in animals, long-term in vivo studies, CPDB compilation (AID 1745844)
# Condition description: rat; strain Fischer 344; males; in feed; site: liver; lesion: hepatocellular adenoma + hepatocellular carcinoma + neoplastic nodule; dosed 87 weeks; study length 103 weeks
Metric name: TD50 (mg/kg/day)
Give just the numeric value; mg/kg/day need not be written.

QUERY: Value lookup for TD50; key = CC(=O)Nc1ccc(C(=O)CCl)cc1
RESULT: 2470

Just for reference, PubChem BioAssay AID1745844 is where these values come from.
